Please go through the items and note down their kd.
Target: T1, recombinant human GPC2-His protein (Homo sapiens, UniProt Q8N158)
T1 construct: His
T1 sequence (Q8N158 24-554): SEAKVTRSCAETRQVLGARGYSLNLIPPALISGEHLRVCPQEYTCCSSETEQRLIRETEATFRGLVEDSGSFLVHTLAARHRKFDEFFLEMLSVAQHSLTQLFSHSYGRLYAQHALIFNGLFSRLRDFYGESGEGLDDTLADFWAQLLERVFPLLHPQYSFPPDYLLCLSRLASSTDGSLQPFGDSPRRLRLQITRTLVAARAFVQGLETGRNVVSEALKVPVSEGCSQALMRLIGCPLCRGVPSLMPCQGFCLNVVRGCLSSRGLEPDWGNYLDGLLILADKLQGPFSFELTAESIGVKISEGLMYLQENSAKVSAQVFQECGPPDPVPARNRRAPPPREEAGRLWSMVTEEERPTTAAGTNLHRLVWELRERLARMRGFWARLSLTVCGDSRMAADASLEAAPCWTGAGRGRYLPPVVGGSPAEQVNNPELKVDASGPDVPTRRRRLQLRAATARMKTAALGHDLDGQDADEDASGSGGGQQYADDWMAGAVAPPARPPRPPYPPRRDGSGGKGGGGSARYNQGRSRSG
Experiment: SPR (Biacore T200) affinity of anti-GPC2 VHH-hIgG1Fc
Details: 1:1 binding model
Please reply with the bare figure in s⁻¹ and do not write the unit itself.

Value lookup for kd; key = AS78117VH4-hIgG1Fc: AS78117VH4 VHH fused to human IgG1Fc fragment (protein, left off: a dimerising Fc or GST, AS78117VH4 VHH fused to human IgG1Fc fragment) EVQLVESGGGLVQPGGSLRLSCIVSRYTYATYSMAWFRQAPGKGLEGVSGLDSVGATGYAESVKGRFTISRDNSKNTLYLQMNSLRAEDTAVYYCVVDPASAKVTYGSWSTPSYAYWGQGTLVTVSS
0.00017

Proceed to AS71529VH6-hIgG1Fc: AS71529VH6 VHH fused to human IgG1Fc fragment (protein, left off: a dimerising Fc or GST, AS71529VH6 VHH fused to human IgG1Fc fragment) EVQLVESGGGLVQPGGSLRLSCAVSEYRYSSRYCMGWFRQAPGKGREGVAAIDSNGSADYVDSVKGRFTISKDNSKNTLYLQMNSLRAEDTAMYYCAADHLAYDCYSGATSVFRYWGQGTLVTVSS
0.0044

Also AS79236VH6-hIgG1Fc: AS79236VH6 VHH fused to human IgG1Fc fragment (protein, left off: a dimerising Fc or GST, AS79236VH6 VHH fused to human IgG1Fc fragment) EVQLVESGGGLVQPGGSLRLSCAVSGYTYSSYCMAWFRQAPGKGLEGVASIDAGGRTTYVDSVKGRFTISKDNAKNSLYLQMNSLRAEDTAMYYCAVDVRTRCGGTWDGEAVYFPYWGQGTLVTVSS ?
0.00019

Now consider AS70950VH6-hIgG1Fc: AS70950VH6 VHH fused to human IgG1Fc fragment (protein, left off: a dimerising Fc or GST, AS70950VH6 VHH fused to human IgG1Fc fragment) EVQLVESGGGLVQPGGSLRLSCAISEFTYKNTCVGWFRQAPGKGREGVAAIDSDGNTNYVDSVKGRFTISQDNSKNTVYLQMNSLRAEDTAMYYCAAGAYCGRLLLWIGNYAYWGQGTLVTVSS and answer again.
0.00011

Cool, now AS71529VH6-AS70950VH6-hIgG1Fc: tandem AS71529VH6-AS70950VH6 VHH fused to human IgG1Fc fragment (protein, left off: a dimerising Fc or GST, tandem AS71529VH6-AS70950VH6 VHH fused to human IgG1Fc fragment) EVQLVESGGGLVQPGGSLRLSCAVSEYRYSSRYCMGWFRQAPGKGREGVAAIDSNGSADYVDSVKGRFTISKDNSKNTLYLQMNSLRAEDTAMYYCAADHLAYDCYSGATSVFRYWGQGTLVTVSSGGGGSGGGGSGGGGSEVQLVESGGGLVQPGGSLRLSCAISEFTYKNTCVGWFRQAPGKGREGVAAIDSDGNTNYVDSVKGRFTISQDNSKNTVYLQMNSLRAEDTAMYYCAAGAYCGRLLLWIGNYAYWGQGTLVTVSS
6.1e-05

Would you mind doing AS72669VH6-hIgG1Fc: AS72669VH6 VHH fused to human IgG1Fc fragment (protein, left off: a dimerising Fc or GST, AS72669VH6 VHH fused to human IgG1Fc fragment) QVQLVESGGGVVQPGGSLRLSCAASRFTYSSYCMGWIRQAPGKGREGVAIFYTGGGRTYYADSVKGRFTISQDNSKNTLYLQMNSLRAEDTAVYYCVAGFYCSGGYWEGDFGYWGQGTLVTVSS as well?
7.7e-05
